Molecular target: JAK1 (Homo sapiens (Human), UniProt P23458)
Sequence (P23458 whole entry): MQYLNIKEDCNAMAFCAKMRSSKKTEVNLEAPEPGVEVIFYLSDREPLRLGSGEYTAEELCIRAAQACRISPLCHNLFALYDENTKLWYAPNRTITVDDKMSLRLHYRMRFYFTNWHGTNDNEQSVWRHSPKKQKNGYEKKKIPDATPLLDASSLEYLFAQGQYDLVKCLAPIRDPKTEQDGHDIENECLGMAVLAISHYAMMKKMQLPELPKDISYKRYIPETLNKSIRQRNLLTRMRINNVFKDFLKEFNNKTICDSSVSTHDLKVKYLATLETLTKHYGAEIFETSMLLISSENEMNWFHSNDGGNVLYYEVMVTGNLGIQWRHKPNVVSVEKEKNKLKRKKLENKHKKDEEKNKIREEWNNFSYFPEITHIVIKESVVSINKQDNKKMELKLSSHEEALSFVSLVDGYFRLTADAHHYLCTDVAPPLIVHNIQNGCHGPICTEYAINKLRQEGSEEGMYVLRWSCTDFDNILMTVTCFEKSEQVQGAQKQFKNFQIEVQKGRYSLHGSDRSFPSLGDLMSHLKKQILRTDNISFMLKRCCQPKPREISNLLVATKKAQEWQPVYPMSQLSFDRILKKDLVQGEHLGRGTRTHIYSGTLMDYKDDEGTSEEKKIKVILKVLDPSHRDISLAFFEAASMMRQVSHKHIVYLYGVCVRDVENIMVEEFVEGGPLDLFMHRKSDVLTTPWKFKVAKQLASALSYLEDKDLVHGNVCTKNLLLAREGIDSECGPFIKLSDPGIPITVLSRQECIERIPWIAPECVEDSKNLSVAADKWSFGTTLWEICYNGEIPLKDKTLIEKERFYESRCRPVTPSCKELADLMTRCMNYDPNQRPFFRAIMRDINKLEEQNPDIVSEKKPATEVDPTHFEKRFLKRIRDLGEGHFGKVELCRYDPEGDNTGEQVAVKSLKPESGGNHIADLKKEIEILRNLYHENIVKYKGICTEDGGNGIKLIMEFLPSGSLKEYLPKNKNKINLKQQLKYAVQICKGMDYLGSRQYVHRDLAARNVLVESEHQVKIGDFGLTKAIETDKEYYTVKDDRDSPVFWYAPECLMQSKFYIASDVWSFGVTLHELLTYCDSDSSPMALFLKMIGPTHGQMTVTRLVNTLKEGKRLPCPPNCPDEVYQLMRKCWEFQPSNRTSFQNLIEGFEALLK
Assay: JAK1 Inhibition Assay (Example B, Omnia kinase fluorescence peptide substrate assay)
Format: biochemical
Settings: JAK1 Enzyme IC50 1 mM ATP, 1 mM ATP; averaged IC50 ranges
pIC50: −log10 of the molar value. Counter-ions that a name gives are not always drawn.
# pIC50 per entry

Reference set (10 entries):
compound	pIC50
C[C@@H](CC(F)(F)F)n1cc(-c2nc(-c3cnn(C[C@@H](O)CO)c3)cn3nccc23)cn1 [Example 195, hydrochloride]	5.00 to 6.00
CCC(CC)n1cc(-c2nc(-c3cnn(C[C@H](CO)N(C)C)c3)cn3nccc23)cn1 [Example 131]	6.00 to 7.00
CCC(CC)n1cc(-c2nc(-c3cnn([C@H]4C[C@H](O)C4)c3)cn3nccc23)cn1 [Example 161]	6.00 to 7.00
CCC(CC)n1cc(-c2nc(-c3cnn(CC(O)CN)c3)cn3nccc23)cn1 (stereo not shown) [Example 98]	5.00 to 6.00
CCC(CC)n1cc(-c2nc(-c3cnn(C[C@H](O)CO)c3)cn3nccc23)cn1 [Example 55]	6.00 to 7.00
CC1(C)CCC[C@H]1n1cc(-c2nc(-c3cnn(C[C@@H](O)CO)c3)cn3nccc23)cn1 (single isomer, unassigned) [Example 96]	5.00 to 6.00
CCC(CC)n1cc(-c2nc(-c3cnn(C[C@@H](O)CN(C)C)c3)cn3nccc23)cn1 [Example 101]	5.00 to 6.00
CCC(c1ccccc1)n1cc(-c2nc(-c3cnn(C[C@@H](O)CO)c3)cn3nccc23)cn1 (stereo partly shown) [Example 66]	7.00 to 8.00
CCC(CC)n1cc(-c2nc(-c3cnn([C@H]4CCC[C@H]4O)c3)cn3nccc23)cn1 (single isomer, unassigned) [compound 190]	5.00 to 6.00
CCC(CC)n1cc(-c2nc(-c3cnn(CC4(O)CCOCC4)c3)cn3nccc23)cn1 [Example 116]	5.00 to 6.00

Enquiry: Sample CCC(CC)n1cc(-c2nc(-c3cnn([C@@H](C)[C@@H](C)O)c3)cn3nccc23)cn1 (single isomer, unassigned) [Example 157] — what was its pIC50?
Return: 6.00 to 7.00

Enquiry: Sample CCC(C)n1cc(-c2nc(-c3cnn(C[C@@H](O)CO)c3)cn3nccc23)cn1 (stereo partly shown) [Example 67] — what was its pIC50?
Return: 6.00 to 7.00

Enquiry: Sample CCC(CC)n1cc(-c2nc(-c3cnn(C[C@@H](O)CO)c3)cn3nccc23)cn1 [Example 54] — what was its pIC50?
Return: 6.00 to 7.00
